- Tested on: KM12 colon
- methodDescription: NCI-60 one-dose screen, 48 h
- particulars: 10 µM unless noted
This is part of a sample that, as a whole, favours compounds with a hit. Of some 83,000 tested, about 20% had one in any assay. Active and inactive are the calls of the source. How the source made its calls: active means growth percent below 10; inactive means the rest.
Just give me one of these, please: active, inactive

I'd appreciate the recorded outcome for COc1ccc(C2(Cl)c3ccccc3N(c3ccccc3)c3ccccc32)cc1 from this test. active

Hi, do you know how C=C(C)[C@@H]1CC[C@]2(C(=O)OC)CC[C@]3(C)[C@H](CC[C@@H]4[C@@](C)(CC/C(N)=N/O)[C@H](C(=C)C)CC[C@]43C)[C@@H]12 came out in this test? inactive

How did this test come out for CCNCCCn1c2c(c3ccc([N+](=O)[O-])cc3c1=O)C(=O)c1cc(OC)cnc1-2 ? active

Hi, sorry to bother you, what did the test record for COc1ccc2c(c1)c(-c1nc(-c3c[nH]c4ncccc34)cs1)cn2C ? inactive

Which outcome did this test record for the compound O=C1/C(=C\c2ccco2)SC(=S)N1CCc1ccc(O)cc1 ? inactive

* * *

- System: SNB-19 CNS
- methodDescription: NCI-60 one-dose screen, 48 h (100 = growth as untreated, 0 = no growth, -100 = all killed)
- particulars: 10 µM unless noted
The panel holds about 83,000 compounds, 20% with a hit somewhere; the sample as a whole holds those more often.
Could you label it Condition met if measured growth is 70% or higher, and Condition not met otherwise?

Check this compound for growth at or above 70%: O=C1C(=O)N(CCCCn2cc(-c3ccccc3)nn2)c2ccccc21 Condition met

Could you tell me if the measured growth of CCN1CCN(C(=O)[C@@]2(C)CC[C@]3(C)CC[C@]4(C)C(=CC(=O)[C@@H]5[C@@]6(C)CC[C@H](OCCC#N)C(C)(C)[C@@H]6CC[C@]54C)[C@@H]3C2)CC1 reaches 70% or more? Condition met

State whether the measured growth reaches 70%, counting equality as reaching it, for COc1ccc2c(c1)c(-c1nc(-c3cn(C)c4ncccc34)cs1)cn2CCN Condition met

Would you say CN(C)c1ccc(N)c2ccccc12 shows growth at minimum 70%? Condition not met

State whether the measured growth reaches 70%, counting equality as reaching it, for Cn1cc(-c2nc(-c3c[nH]c4ncccc34)cs2)c2cc(Br)ccc21 Condition met

Form field: growth at least 70%? Entry: CCN(CC)CCCCCCNc1ccnc2cc(Cl)ccc12 Condition met

Is reported growth greater than or equal to 70% here: N#C/C(=C\c1ccc(-c2ccc(Br)cc2)o1)c1nc(-c2cccs2)cs1 Condition met

Determine whether measured growth meets or exceeds 70% for CN1CCN(c2nc(-c3csc(-c4cccs4)n3)cc3ccccc23)CC1 Condition not met

# bool: growth of CCCCCCCN(CCCCCCC)C(=N)c1ccnc2ccccc12 >= 70% Condition not met

Please check the record C=COCCCCCCCCCCCCCCCCCC and state if its growth is at or above 70%. Condition met

* * *

Item-by-item account of growth
- Tested on: SK-MEL-5 melanoma
- methodDescription: NCI-60 one-dose screen, 48 h (100 = growth as untreated, 0 = no growth, -100 = all killed)
- particulars: 10 µM unless noted
Compounds without any hit were thinned out: in the full panel of roughly 83,000, 20% have a hit.
Please reply with the bare figure in % and do not write the unit itself.

Some compounds with known growth results, for comparison:
* Cc1oc(-c2ccccc2Cl)cc1C(=O)Nc1ccc(S(N)(=O)=O)cc1 | 97.3
* C#Cc1cc2c(N)c(C(=O)c3cc(OC)c(OC)c(OC)c3)[nH]c2cc1OC | 19.9
* COC(=O)[C@]12CC[C@@H](C)[C@H](C)[C@@H]1C1=CC[C@@H]3[C@@]4(C)CC(=O)[C@H](OC(=O)c5ccco5)[C@@]5(C)COC(=C45)C[C@@]3(C)[C@]1(C)CC2 | -46.1
* C[Si](C)(C)Cc1ccccc1 | 108
* Brc1ccc2[nH]cc(-c3nc(-c4c[nH]c5ncccc45)cs3)c2c1 | 54.7

Consider now this further compound.
Could you share what growth was measured for C[C@]12CC[C@@H]3c4ccc(O)cc4CC[C@H]3[C@@H]1C[C@H](O)[C@@H]2O , tested on SK-MEL-5 melanoma? 94.1

* * *

- Test system: A549/ATCC NSCLC
- methodDescription: NCI-60 one-dose screen, 48 h
- particulars: 10 µM unless noted
Compounds without any hit were thinned out: in the full panel of roughly 83,000, 20% have a hit. Calls of active or inactive are those of the source. How the source made its calls: active means growth percent below 10; inactive means the rest.
Field 'call' accepts active, inactive

• CC1(C)C(=O)/C(=C\c2ccco2)C[C@]2(C)[C@H]3CC[C@@H]4[C@@H](C(=O)/C=C/c5ccco5)CC[C@@]4(C)[C@]3(C)CC[C@@H]12 = inactive
• Fc1ccc2[nH]cc(-c3nc(-c4c[nH]c5ncccc45)cs3)c2c1 = inactive
• C/C(=N/NC(N)=S)C(=O)O = inactive
• O=C1C(=O)c2ccccc2C(O)=C1CCCc1ccc(C2CCCCC2)cc1 = inactive
• Nc1c(C(=O)Nc2cccc(Cl)c2)sc2ncc(Cl)cc12 = inactive
• CN1CCN(c2nc(-c3cccc4ccccc34)nc3sc4c(c23)CCCCCC4)CC1 = inactive
• COc1ccc(/C=C2\N=C(c3ccccc3)N(c3cc(OC)c(OC)cc3C(=O)N3N=C(C)CC3=O)C2=O)cc1 = inactive
• O=C(O)c1cccc2c1Cc1cc([N+](=O)[O-])ccc1-2 = inactive

Which result was noted for this compound in the test: C=C1C(=O)O[C@H]2[C@H]1CC/C(COC(=O)NCCc1c[nH]c3ccccc13)=C\CC[C@@]1(C)O[C@@H]21 inactive

Each compound tested received a call. Report the one for O=C1CN(c2ccccc2)C(=O)C1C(=O)Nc1ccc(Cl)c(Cl)c1 (stereo not drawn) . inactive

Could you check what this test reported for COc1cnc2c(c1)C(=O)c1c-2n(CCCNC2=NCCS2)c(=O)c2cc([N+](=O)[O-])ccc12 ? active

Test call, this compound: O=C(/C=C/c1cccc2ccccc12)Nc1ncc(Cc2ccccc2)s1 inactive

Check the results log: what was the call for COc1cc(/C=C2\C(=O)N(CC(O)COc3cc(O)c4c(=O)cc(-c5ccccc5)oc4c3)c3ccccc32)cc(OC)c1O (stereo not drawn) ? inactive

Give the logged outcome of this assay for the following compound: Cc1cccc(C)c1NC(=O)CSC(=S)N1CCCCC1 inactive

In this assay, the call recorded for CC(=O)n1c(/C(C#N)=C/c2ccc(N(C)C)cc2)cc2ccccc21 was what? inactive

Check the results log: what was the call for C#CCC(C)(O)/C=C/C1=C(C)CCCC1(C)C (stereo not drawn) ? inactive

Given COC(=O)[C@@H]1[C@H]2C[C@H]3c4[nH]c5cc(OC)ccc5c4CCN3C[C@@H]2C[C@H](OC(=O)/C=C/c2ccnc(OC)c2)[C@H]1OC , state the outcome it received in this test. inactive

* * *

- Test system: SN12C renal
- methodDescription: NCI-60 one-dose screen, 48 h
- particulars: 10 µM unless noted
The panel holds about 83,000 compounds, 20% with a hit somewhere; the sample as a whole holds those more often. Active and inactive are the calls of the source. Rule for the calls: active = growth percent below 10; inactive = the rest.
Mark one answer only. Choices: 1 = active, -1 = inactive

Example results:
• CC1(C)NCCC[C@]2(C)[C@H]3CC[C@@H]4[C@H]5[C@H](C(=O)/C=C/c6ccccn6)CC[C@]5(CO)CC[C@@]4(C)[C@]3(C)CC[C@@H]12 = -1
• COc1ccc(-c2nc(SCC(=O)Nc3ccc(C(C)=O)cc3)[nH]c(=O)c2C#N)cc1 = -1
• CSc1ccc(N(C)c2nc(C)nc3c2CCC3)cc1 = -1
• N#CC1=C(N)Oc2c(c(N)nn2-c2ccccc2)C1c1ccc(Cl)cc1 (stereo not drawn) = -1
• Cc1ccnc2c(OCc3ccccc3)cccc12 = -1
• CN1CCN(c2nc(-c3cccc4ccccc34)nc3sc4c(c23)CCCCCC4)CC1 = -1

For CCCC(=O)N1CCCCC1CC (stereo not drawn) , what call appears in the results of this test? -1

Name the outcome recorded for NC1(N)C=CC2=C(C=C1)C1(N)C3=C(C=CC(N)(N)C=C3)N2C2(N)C3=C(C=CC(N)(N)C=C3)N1C1=C2C=CC(N)(N)C=C1 in the assay. -1

Hi, sorry to bother you, what did the test record for O=C1C(Cl)=C(Nc2ccc(S(=O)(=O)c3ccc(NC4=C(Cl)C(=O)c5ccccc5C4=O)cc3)cc2)C(=O)c2ccccc21 ? -1

Hi team, can someone confirm the assay call for N#Cc1cnc2cc(OC[C@@H](O)CO)c(NC(=O)C3CCCC3)cc2c1Nc1ccc(OCc2cccc(F)c2)c(Cl)c1 ? -1

Lab log entry: C=C1C(=O)O[C@H]2[C@H]1CC/C(Cn1cc(-c3ccc(F)cc3)nn1)=C\CC[C@@]1(C)O[C@@H]21 — outcome as called in the assay? 1

What call does the record list for Fc1ccc(Nc2nnc(-c3ccc(Cl)cc3)o2)cc1 ? -1

For C/C(=N\NC(=O)C(C)SC(C)C(=O)N/N=C(\C)c1cccnc1)c1cccnc1 (stereo not drawn) , what call appears in the results of this test? -1

Recorded test outcome, item COc1ccc2c(c1)C/C(=C\c1cc(-c3cc(OC)c(OC)c(OC)c3)n[nH]1)C2=O -1
